Data origin, for the record: PubChem BioAssay (NCI)

# Test system: MCF7 breast
# protocol_description: NCI-60 one-dose screen, 48 h
# condition_details: 10 µM unless noted
This is part of a sample that, as a whole, favours compounds with a hit. Of some 83,000 tested, about 20% had one in any assay. Calls of active or inactive are those of the source. The calls were made as follows: active = growth percent below 10; inactive = the rest.
Respond with a class label; see y for active, n for inactive

>>> label_class("[Cu+].[NH-][C@H]1C[N-]C(=O)[C@H]([C@H]2CCN=C(N)N2)[N-]C(=O)/C(=C\\NC(N)=O)[N-]C(=O)[C@H](CNC(=O)C[C@@H](N)CCCN)[N-]C(=O)[C@H](CO)[N-]C1=O")
"n"
>>> label_class("Cc1ccccc1SSc1ccccc1C")
"n"
>>> label_class("C#CCOc1cccc(Nc2ncc3ncn(C4CCN(C(=O)CCl)C4)c3n2)c1 (centres undefined)")
"y"

Now let's try a different one.
## Task Test call, this molecule: `COc1cc(CNC(=O)CCCC/C=C/C(C)C)ccc1OCc1cn(-c2ccc([N+](=O)[O-])cc2)nn1`
## Result n
